Source: ChEMBL document CHEMBL5291721

# measurement-target: 3',5'-cyclic-AMP phosphodiesterase 4D (Homo sapiens, UniProt Q08499); note: assay procedure not described here
# Sequence (Q08499 whole entry): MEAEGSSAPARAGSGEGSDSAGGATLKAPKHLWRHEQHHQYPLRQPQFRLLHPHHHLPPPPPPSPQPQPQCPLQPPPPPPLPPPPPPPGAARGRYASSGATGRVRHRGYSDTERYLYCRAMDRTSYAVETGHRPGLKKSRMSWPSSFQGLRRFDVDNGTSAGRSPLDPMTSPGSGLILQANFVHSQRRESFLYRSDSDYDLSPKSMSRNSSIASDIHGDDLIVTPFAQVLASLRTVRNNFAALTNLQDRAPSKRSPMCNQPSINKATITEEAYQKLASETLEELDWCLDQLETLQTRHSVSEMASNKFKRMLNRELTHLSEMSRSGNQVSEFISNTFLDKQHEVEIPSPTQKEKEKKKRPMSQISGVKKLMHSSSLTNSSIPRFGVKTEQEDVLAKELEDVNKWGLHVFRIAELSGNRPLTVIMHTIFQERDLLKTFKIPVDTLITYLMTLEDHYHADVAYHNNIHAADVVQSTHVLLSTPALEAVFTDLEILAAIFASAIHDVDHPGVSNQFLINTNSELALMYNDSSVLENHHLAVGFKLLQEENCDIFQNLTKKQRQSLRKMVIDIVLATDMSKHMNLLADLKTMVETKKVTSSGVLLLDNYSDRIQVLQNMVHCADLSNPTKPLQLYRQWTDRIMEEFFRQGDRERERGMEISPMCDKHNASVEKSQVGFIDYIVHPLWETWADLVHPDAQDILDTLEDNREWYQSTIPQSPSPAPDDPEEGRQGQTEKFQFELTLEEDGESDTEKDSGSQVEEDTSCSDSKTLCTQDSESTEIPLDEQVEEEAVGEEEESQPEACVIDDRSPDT
# Assay type: functional
measured-parameter: AC50 (µM)
Write down the numeric answer in µM and omit the unit.

structure-notation: CCOC(=O)C1=C[C@]2(CC)CCCN3CCc4c(n1c1ccccc41)[C@@H]32
measured-result: 8.8

// compound "O=C1CN=C(c2ccccc2)c2cc([N+](=O)[O-])ccc2N1" , assay 3',5'-cyclic-AMP phosphodiesterase 4D (Homo sapiens, UniProt Q08499), AC50 value: 30

====

Quick reference for AC50 among some compounds
# measurement-target: Alpha-2A adrenergic receptor (Homo sapiens, UniProt P08913)
# Format: functional, cell-based

Use the examples below as a reference point.
compound: CCOC(=O)c1cncn1[C@H](C)c1ccccc1 [ETOMIDATE]
measurement-target: Alpha-2A adrenergic receptor (Homo sapiens, UniProt P08913)
measured-result: > 10 µM
//
compound: CCCCC(=O)O[C@]1(C(=O)CO)[C@@H](C)C[C@H]2[C@@H]3CCC4=CC(=O)C=C[C@]4(C)[C@@]3(F)[C@@H](O)C[C@@]21C [BETAMETHASONE VALERATE]
measurement-target: Alpha-2A adrenergic receptor (Homo sapiens, UniProt P08913)
measured-result: > 10 µM
//
compound: CC(C)Cc1ccc(C(C)C(=O)O)cc1 (centres undefined) [IBUPROFEN]
measurement-target: Alpha-2A adrenergic receptor (Homo sapiens, UniProt P08913)
measured-result: > 10 µM

According to the records, this compound Nc1ncn([C@H]2C[C@H](O)[C@@H](CO)O2)c(=O)n1 [DECITABINE] displays AC50 of > 30 µM

According to the records, this compound OC[C@H]1O[C@@](CO)(O[C@H]2O[C@H](CO)[C@@H](O)[C@H](O)[C@H]2O)[C@@H](O)[C@@H]1O [SUCROSE] displays AC50 of > 30 µM

According to the records, this compound "C[N@+]1(CCF)[C@@H]2CC[C@H]1C[C@@H](OC(=O)C(O)(c1ccccc1)c1ccccc1)C2" displays AC50 of > 30 µM

====

# measurement-target: Alpha-2A adrenergic receptor (Homo sapiens, UniProt P08913)
# Sequence (P08913 whole entry): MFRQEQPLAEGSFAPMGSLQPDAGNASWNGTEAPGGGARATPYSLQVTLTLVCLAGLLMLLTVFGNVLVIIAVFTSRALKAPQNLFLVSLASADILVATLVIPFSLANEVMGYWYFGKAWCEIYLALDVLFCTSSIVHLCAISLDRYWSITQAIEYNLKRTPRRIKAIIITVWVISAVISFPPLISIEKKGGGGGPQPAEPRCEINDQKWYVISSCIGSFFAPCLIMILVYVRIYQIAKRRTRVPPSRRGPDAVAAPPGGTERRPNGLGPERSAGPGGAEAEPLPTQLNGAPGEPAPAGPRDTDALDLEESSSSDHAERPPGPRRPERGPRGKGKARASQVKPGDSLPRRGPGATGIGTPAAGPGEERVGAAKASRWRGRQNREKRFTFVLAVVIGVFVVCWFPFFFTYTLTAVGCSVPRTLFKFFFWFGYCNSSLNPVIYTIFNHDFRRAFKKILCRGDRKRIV
# Format: functional, cell-based
measured-parameter: AC50

Use the examples below as a reference point.
compound: C#C[C@]1(O)CC[C@H]2[C@@H]3CCC4=CC(=O)CC[C@@H]4[C@H]3C(=C)C[C@@]21CC [ETONOGESTREL]
measurement-target: Alpha-2A adrenergic receptor (Homo sapiens, UniProt P08913)
measured-result: > 30 µM
//
compound: C=CCNc1nc(NCC=C)nc(N2CCN(C(c3ccc(F)cc3)c3ccc(F)cc3)CC2)n1 [ALMITRINE]
measurement-target: Alpha-2A adrenergic receptor (Homo sapiens, UniProt P08913)
measured-result: > 30 µM
//
compound: CC(C)COCC(CN(Cc1ccccc1)c1ccccc1)N1CCCC1 (stereo unspecified) [BEPRIDIL]
measurement-target: Alpha-2A adrenergic receptor (Homo sapiens, UniProt P08913)
measured-result: > 30 µM
//
compound: COc1ccccc1Oc1c(NS(=O)(=O)c2ccc(C(C)(C)C)cc2)nc(-c2ncccn2)nc1OCCO [BOSENTAN]
measurement-target: Alpha-2A adrenergic receptor (Homo sapiens, UniProt P08913)
measured-result: > 10 µM
//
compound: C[C@H](CCC(=O)O)[C@H]1CC[C@H]2[C@@H]3[C@@H](O)C[C@@H]4C[C@H](O)CC[C@]4(C)[C@H]3CC[C@]12C [URSODIOL]
measurement-target: Alpha-2A adrenergic receptor (Homo sapiens, UniProt P08913)
measured-result: > 30 µM

According to the records, this compound CC(C)Cc1ccc(C(C)C(=O)O)cc1 (stereo unspecified) [IBUPROFEN] displays AC50 of > 10 µM

According to the records, this compound CCCCCCCCCCCCCCCCCCCCCC(=O)Nc1ccn([C@@H]2O[C@H](CO)[C@@H](O)[C@@H]2O)c(=O)n1 [ENOCITABINE] displays AC50 of > 30 µM

According to the records, this compound COc1ccccc1OCCNCC(O)COc1cccc2[nH]c3ccccc3c12 (stereo unspecified) [CARVEDILOL] displays AC50 of 3.09 µM

====

Quick reference for AC50 among some molecules
# measurement-target: Histamine H3 receptor (Homo sapiens, UniProt Q9Y5N1); note: assay procedure not described here
# Sequence (Q9Y5N1 whole entry): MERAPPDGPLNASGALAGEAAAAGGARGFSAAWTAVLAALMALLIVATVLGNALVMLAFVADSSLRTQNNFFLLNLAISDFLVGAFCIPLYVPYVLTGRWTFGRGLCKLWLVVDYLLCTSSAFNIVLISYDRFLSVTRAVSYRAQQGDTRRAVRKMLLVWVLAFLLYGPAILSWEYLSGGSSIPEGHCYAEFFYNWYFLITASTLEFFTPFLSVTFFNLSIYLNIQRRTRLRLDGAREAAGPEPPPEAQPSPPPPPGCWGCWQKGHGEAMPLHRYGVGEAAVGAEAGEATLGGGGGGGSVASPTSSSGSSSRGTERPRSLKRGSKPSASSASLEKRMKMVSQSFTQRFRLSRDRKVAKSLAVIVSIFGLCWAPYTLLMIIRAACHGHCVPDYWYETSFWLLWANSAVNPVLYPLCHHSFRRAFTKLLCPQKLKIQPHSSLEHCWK

Use the examples below as a reference point.
molecule: CCOC(=O)C1=C[C@]2(CC)CCCN3CCc4c(n1c1ccccc41)[C@@H]32 [VINPOCETINE]
AC50: 18 µM
--
molecule: COc1cc2nc(N3CCN(C(=O)C4CCCO4)CC3)nc(N)c2cc1OC (stereo not given) [TERAZOSIN]
AC50: > 10 µM
--
molecule: CC(=O)SC[C@@H](C)C(=O)N1CCC[C@H]1C(=O)N[C@@H](Cc1ccccc1)C(=O)O
AC50: > 30 µM
--
molecule: CCCN(CCC)C(=O)Cc1c(-c2ccc(Cl)cc2)nc2ccc(Cl)cn12 [ALPIDEM]
AC50: > 30 µM

Kindly consider the entry below.
According to the records, this molecule Nc1cc(-c2ccncc2)c[nH]c1=O [INAMRINONE] displays AC50 of > 10 µM

====

# measurement-target: Beta-2 adrenergic receptor (Homo sapiens, UniProt P07550); note: assay procedure not described here
# Sequence (P07550 whole entry): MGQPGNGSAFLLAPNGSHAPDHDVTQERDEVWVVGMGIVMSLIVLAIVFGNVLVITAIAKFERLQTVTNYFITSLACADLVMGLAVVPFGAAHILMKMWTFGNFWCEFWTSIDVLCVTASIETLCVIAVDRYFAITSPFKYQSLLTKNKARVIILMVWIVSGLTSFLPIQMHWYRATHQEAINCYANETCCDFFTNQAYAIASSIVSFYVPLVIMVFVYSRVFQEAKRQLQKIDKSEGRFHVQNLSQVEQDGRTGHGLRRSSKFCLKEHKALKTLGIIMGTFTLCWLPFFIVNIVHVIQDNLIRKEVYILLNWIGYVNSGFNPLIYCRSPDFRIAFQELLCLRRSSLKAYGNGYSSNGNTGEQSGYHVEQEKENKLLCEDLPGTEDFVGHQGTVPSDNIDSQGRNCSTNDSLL
measured-parameter: AC50

Use the examples below as a reference point.
molecule: C=CCNc1nc(NCC=C)nc(N2CCN(C(c3ccc(F)cc3)c3ccc(F)cc3)CC2)n1
AC50: > 30 µM
--
molecule: OC1(c2ccc(Cl)cc2)c2ccccc2C2=NCCN21 (centres undefined)
AC50: > 30 µM
--
molecule: CC(=O)O[C@H](CC(=O)[O-])C[N+](C)(C)C
AC50: > 30 µM
--
molecule: CN(C)CCc1c[nH]c2ccc(Cn3cncn3)cc12
AC50: > 10 µM
--
molecule: C#C[C@]1(OC(C)=O)CC[C@H]2[C@@H]3CCC4=C/C(=N/O)CC[C@@H]4[C@H]3CC[C@@]21CC [NORGESTIMATE]
AC50: > 30 µM
--
molecule: C[C@H]1c2cccc(O)c2C(=O)C2=C(O)[C@]3(O)C(=O)C(C(N)=O)=C(O)[C@@H](N(C)C)[C@@H]3[C@@H](O)[C@@H]21
AC50: > 10 µM

// molecule "C=C1/C(=C\C=C2/CCC[C@]3(C)[C@@H]([C@H](C)/C=C/[C@@H](O)C4CC4)CC[C@@H]23)C[C@@H](O)C[C@@H]1O" , assay Beta-2 adrenergic receptor (Homo sapiens, UniProt P07550), AC50 value: > 30 µM

// molecule CCCC(CCC)C(N)=O [VALPROMIDE] , assay Beta-2 adrenergic receptor (Homo sapiens, UniProt P07550), AC50 value: > 10 µM

// molecule "O=C(O)CCNC(=O)c1ccccc1" , assay Beta-2 adrenergic receptor (Homo sapiens, UniProt P07550), AC50 value: > 30 µM

// molecule CC(C)N(CCC(C(N)=O)(c1ccccc1)c1ccccn1)C(C)C (centres undefined) [DISOPYRAMIDE] , assay Beta-2 adrenergic receptor (Homo sapiens, UniProt P07550), AC50 value: > 30 µM

// molecule CCN(CC)CCNC(=O)c1cc(S(C)(=O)=O)ccc1OC [TIAPRIDE] , assay Beta-2 adrenergic receptor (Homo sapiens, UniProt P07550), AC50 value: > 30 µM

// molecule "O=C1CN=C(c2ccccc2)c2cc([N+](=O)[O-])ccc2N1" , assay Beta-2 adrenergic receptor (Homo sapiens, UniProt P07550), AC50 value: > 10 µM

// molecule Clc1ccc(C(Cn2ccnc2)OCc2ccsc2Cl)c(Cl)c1 (centres undefined) , assay Beta-2 adrenergic receptor (Homo sapiens, UniProt P07550), AC50 value: 10.6 µM

// molecule CC(C(=O)O)c1ccc2c(c1)[nH]c1ccc(Cl)cc12 (centres undefined) , assay Beta-2 adrenergic receptor (Homo sapiens, UniProt P07550), AC50 value: > 10 µM

// molecule C=CC[C@@H]1/C=C(\C)C[C@H](C)C[C@H](OC)[C@H]2O[C@@](O)(C(=O)C(=O)N3CCCC[C@H]3C(=O)O[C@H](/C(C)=C/[C@@H]3CC[C@@H](O)[C@H](OC)C3)[C@H](C)[C@@H](O)CC1=O)[C@H](C)C[C@@H]2OC [TACROLIMUS ANHYDROUS] , assay Beta-2 adrenergic receptor (Homo sapiens, UniProt P07550), AC50 value: > 10 µM

// molecule "C[C@@H](Oc1cc(-c2cnn(C3CCNCC3)c2)cnc1N)c1c(Cl)ccc(F)c1Cl" , assay Beta-2 adrenergic receptor (Homo sapiens, UniProt P07550), AC50 value: > 10 µM

// molecule "COCC1=C(C(=O)O)N2C(=O)[C@@H](NC(=O)/C(=N\OC)c3csc(N)n3)[C@H]2SC1" , assay Beta-2 adrenergic receptor (Homo sapiens, UniProt P07550), AC50 value: > 30 µM

// molecule CCCCC(=O)O[C@]1(C(=O)CO)[C@@H](C)C[C@H]2[C@@H]3CCC4=CC(=O)C=C[C@]4(C)[C@@]3(F)[C@@H](O)C[C@@]21C [BETAMETHASONE VALERATE] , assay Beta-2 adrenergic receptor (Homo sapiens, UniProt P07550), AC50 value: > 10 µM

// molecule "O=C1CN=C(c2ccccn2)c2cc(Br)ccc2N1" , assay Beta-2 adrenergic receptor (Homo sapiens, UniProt P07550), AC50 value: > 10 µM

// molecule CC(C(=O)O)c1ccc(CC2CCCC2=O)cc1 (centres undefined) , assay Beta-2 adrenergic receptor (Homo sapiens, UniProt P07550), AC50 value: > 30 µM

// molecule CC(C(=O)O)c1ccc(-c2ccccc2)c(F)c1 (centres undefined) , assay Beta-2 adrenergic receptor (Homo sapiens, UniProt P07550), AC50 value: > 10 µM

// molecule CNC1=Nc2ccc(Cl)cc2C(c2ccccc2)=[N+]([O-])C1 [CHLORDIAZEPOXIDE] , assay Beta-2 adrenergic receptor (Homo sapiens, UniProt P07550), AC50 value: > 10 µM

// molecule CC(CCc1ccc(O)cc1)NCCc1ccc(O)c(O)c1 (centres undefined) , assay Beta-2 adrenergic receptor (Homo sapiens, UniProt P07550), AC50 value: 5.07 µM

// molecule "CCCCC1C(=O)N(c2ccccc2)N(c2ccccc2)C1=O" , assay Beta-2 adrenergic receptor (Homo sapiens, UniProt P07550), AC50 value: > 10 µM
